Reference for the values: ChEMBL document CHEMBL3988442

molecular target: Arginase-2, mitochondrial (Homo sapiens); assay: in vitro enzyme assay to detect the production of urea directly proportional to the activity of Arginase II; type: functional; design: scale not given: in the data most compounds retested in dose-response had high values; settings: 33.3 µM
outcome.measure: Percent Effect (%)

molecule=O=C(NC1(c2cccc(F)c2)CCOCC1)c1ccccn1 outcome_measure="Percent Effect" unit_annotation=% result_number=2.76
molecule=COC(=O)CCC(=O)N1CCC2(CN(Cc3cccc(F)c3)C2)C1 outcome_measure="Percent Effect" unit_annotation=% result_number=-52.5
molecule="CN(C)c1ccc(CCNC(=O)C2CCC(=O)N(C3CCCC3)C2)cc1 (stereo unspecified)" outcome_measure="Percent Effect" unit_annotation=% result_number=1.56
molecule="CCc1n[nH]c(C2CN(Cc3nnc(C4CC4)n3C)CCO2)n1 (stereo unspecified)" outcome_measure="Percent Effect" unit_annotation=% result_number=3.16
molecule=COc1ccc(-c2nc(CN3CC(n4cc(C)cn4)C3)no2)cc1 outcome_measure="Percent Effect" unit_annotation=% result_number=88.3
molecule="Cc1nc(C2CCCN(C(=O)c3cccc(S(C)(=O)=O)c3)C2)no1 (stereo unspecified)" outcome_measure="Percent Effect" unit_annotation=% result_number=7.96
